Experiment: in vitro
Conditions: human, hela cells, % viability
MEASURED_PARAMETER: viability at 28.5 h, 10 µM (%)

• COc1cc2[nH]c(=S)n(CCc3c[nH]cn3)c(=O)c2cc1OC = 102
• Cc1c(C(=O)N2CCC[C@H]2[C@H](O)c2nccs2)oc2ccccc12 = 100
• O=C(O)C1CCN(C(=O)[C@@H]2Cc3ccccc3CN2)CC1 = 91
• CC(=O)NCCOc1nc(N(C)C)nc(N2CCOCC2)n1 = 96.7
• CC(C)(CO)CNc1nc(-c2ccc(F)cc2)cnc1N = 95.7
• C[C@@H](c1ccccc1)n1c(=O)[nH]c2ncc(-c3cccc4cccnc34)nc21 = 92
• OC1(c2ccc(F)cc2)CC2CCC(C1)N2CC1=CCCOC1 (centres unmarked) = 106
• Cc1nn(-c2ccccc2)c2[nH]c(=O)c(CNC(C)(C)C)cc12 = 101
• Cn1cc(CCCCNC(=O)Cc2c[nH]c3ccc(Cl)cc23)cn1 = 76
• CS(=O)(=O)c1ccc(-c2nccnc2N[C@@H]2CCN(Cc3ccccc3)C2)cc1 = 102
• CCNC(=O)C(C)NC(=O)c1cnn(-c2ccc(Br)cc2)c1C (centres unmarked) = 79.3
• c1csc(-c2nccnc2OC2CCCCC2)c1 = 90.2
• N#C/C(=C\c1cn(Cc2ccc(Cl)cc2Cl)nc1-c1ccccc1)c1nc2ccccc2[nH]1 = 87.3
• COc1ccc(Cn2ncnc2CC2CCNCC2)cc1 = 83.4
• Cc1nc2c(c(=O)[nH]1)CCN(CCC(C)c1ccccc1)C2 (centres unmarked) = 81
• CCOC(=O)C1CCCN(CCC(=O)Nc2cccc(C)c2)C1 (centres unmarked) [CBK264158C] = 107
• COc1ccccc1N1CCN(C(=O)Nc2ccc(Cl)cc2)CC1 = 94.5
• Cn1c(SCC(=O)Nc2cccc(C(=O)O)c2)nnc1-c1ccccc1 = 96.1
• CCOc1cc(NC2CCN(C(=O)C3CCCCC3(C)C)CC2)ncn1 (centres unmarked) = 105
• CC(=O)N1CCCN(C(=O)Cn2cnc3ccc(F)cc3c2=O)CC1 = 106
• O=C1CC2(CCCCC2)C(C(=O)O)N1 (centres unmarked) = 114
• CN(Cc1cnc(-c2ccncc2)cn1)C1CCN(C(=O)OC(C)(C)C)CC1 = 93.4
• Cc1ccc(C2=CCN(CC(=O)Nc3ncc(C)s3)CC2)o1 = 90
• Cc1cccc(CN(CCCN(C)C)Cc2ccc(C)o2)n1 = 98.2
• C[C@@H]1C(=O)Nc2ccc(F)cc2N1C(=O)N1CCCC1 = 96
• Cc1nccn1CC1(O)CCN(C(=O)Cc2cccc(F)c2)CC1 = 109
• CC(C)(C)c1cc(/C=N/Nc2nc3ccccc3[nH]2)cc(C(C)(C)C)c1O = 90.2
• COc1cc(C(=O)N2CCC3(CC2)CC(=O)c2ccc(-c4ccc(NS(C)(=O)=O)cc4)cc2O3)cc(OC)c1C = 90.8
• CN(C)c1ccc(/C=C2/C(=N)N3N=C(c4ccccc4Cl)SC3=NC2=O)cc1 = 94.6
• CN1CCCN(c2ccc(NS(=O)(=O)c3ccc(F)cc3F)c3ccccc23)CC1 [CBK001499C] = 64.8
• O=C(Nc1cccnc1)N1CCCC(CO)C1 (centres unmarked) = 92.4
• O=C1CCc2cc(S(=O)(=O)Nc3ccc(OCc4ccccc4)cc3)ccc2N1 = 90
• OCCN1CC2(CCN(CCc3c[nH]c4ccccc34)CC2)c2ccccc21 [CBK144607T] = 94.2
• COc1ccc(CNC(=O)C2CC(=O)N(c3ccc(O)cc3)C2)cc1 (centres unmarked) = 96.8
• Cn1cc(CN2C[C@H]3CN(C(=O)C4CCC4)C[C@@]3(C(=O)O)C2)cc1C#N = 101
• COc1ccc(Br)cc1CN1CCC(N2CCN(c3ccccc3OC)CC2)CC1 [CBK264681G] = 88.4
• Nc1ncc(-c2ccc(C(=O)N3CCOCC3)cc2)nc1-c1ccc(Cl)s1 = 93.6
• CC(=O)c1ccc(NC(=O)N2Cc3nc[nH]c3C[C@H]2c2nc(-c3ccc(F)cc3)no2)cc1 = 83.6
